This section presents pIC50 values reported for Protein deacetylase HDAC6 (Homo sapiens) in the literature.
Please treat pIC50 as minus the base-10 logarithm of the molar concentration.

Solved cases below.
INSERT INTO results (compound, measured_value) VALUES
  ('Cc1ccc(C(=O)C(=O)N2CC(O)SCC2C(=O)OCc2cc(C(=O)OCc3cccc(Br)c3)ccn2)cc1 (stereo not shown)', 9.12),
  ('O=C(NO)c1ccc2cn(Cc3ccc(OC(F)(F)F)cc3)nc2c1', 8.26),
  ('Cc1ccc(Cn2cc3ccc(C(=O)NO)cc3n2)cc1', 8.13),
  ('O=C(NO)c1ccc2cn(Cc3cccc(C(F)(F)F)c3)nc2c1', 8.48),
  ('O=C(N[C@@H]1CCCC[C@H]1N1Cc2c(F)cc(-c3nnc(C(F)F)o3)cc2S1(=O)=O)C(F)F', 6.60),
  ('Cc1ccccc1C(=O)C(=O)N1CC(O)OCC1C(=O)OCc1ccccc1C(=O)OCc1ccccc1Cl (stereo not shown)', 8.54),
  ('O=C(NO)c1ccc2cn(Cc3ccc(OC(F)F)cc3)nc2c1', 8.39),
  ('O=C(NO)c1ccc2cn(Cc3ccc4ccccc4c3)nc2c1', 8.38),
  ('CC(COC(=O)c1cccc(COC(=O)C2COC(O)CN2C(=O)C(=O)C2=Cc3ccccc3C2)c1)c1ccccc1 (stereo not shown)', 8.41),
  ('O=S1(=O)c2cc(-c3nnc(C(F)F)o3)ccc2CN1[C@@H]1CCCC[C@H]1O', 6.13);

## Task Tell me pIC50 of CN(C)C(=O)N[C@@H]1CCCC[C@H]1N1Cc2ccc(-c3nnc(C(F)F)o3)cc2S1(=O)=O when tested on Protein deacetylase HDAC6 (Homo sapiens).
## Result 6.87

## Task Tell me pIC50 of Cc1ccc(S(=O)(=O)N2CC(O)CCC2C(=O)OCCc2cccc(C(=O)OCc3ccccc3Cl)c2)cc1 (stereo not shown) when tested on Protein deacetylase HDAC6 (Homo sapiens).
## Result 8.82

## Task Tell me pIC50 of COc1cccc(Cn2cc3cc(F)c(C(=O)NO)cc3n2)c1 when tested on Protein deacetylase HDAC6 (Homo sapiens).
## Result 7.12

## Task Tell me pIC50 of COc1ccc(CCn2cc3ccc(C(=O)NO)cc3n2)cc1 when tested on Protein deacetylase HDAC6 (Homo sapiens).
## Result 8.33

## Task Tell me pIC50 of O=C(NO)c1ccc2cn(Cc3ccc(-c4ccccc4)cc3)nc2c1 when tested on Protein deacetylase HDAC6 (Homo sapiens).
## Result 8.44

## Task Tell me pIC50 of O=C(C(=O)N1CC(O)SCC1C(=O)OCCC1CCCCC1C(=O)OCc1ccccn1)c1cc2ccccc2[nH]1 (stereo not shown) when tested on Protein deacetylase HDAC6 (Homo sapiens).
## Result 8.59

## Task Tell me pIC50 of COC(=O)N[C@@H]1CCCC[C@H]1N1Cc2ccc(-c3nnc(C(F)F)o3)cc2S1(=O)=O when tested on Protein deacetylase HDAC6 (Homo sapiens).
## Result 6.78

## Task Tell me pIC50 of COc1ccc(Cn2cc3ccc(C(=O)NO)cc3n2)cc1 when tested on Protein deacetylase HDAC6 (Homo sapiens).
## Result 8.27

## Task Tell me pIC50 of O=S1(=O)c2cc(-c3nnc(C(F)F)o3)ccc2CN1[C@@H]1CCCC[C@H]1NS(=O)(=O)C(F)(F)F when tested on Protein deacetylase HDAC6 (Homo sapiens).
## Result 6.76

## Task Tell me pIC50 of CC(F)(F)C(=O)N[C@@H]1CCCC[C@H]1N1Cc2ccc(-c3nnc(C(F)F)o3)cc2S1(=O)=O when tested on Protein deacetylase HDAC6 (Homo sapiens).
## Result 7.23

## Task Tell me pIC50 of O=C(NO)c1ccc2cn(Cc3cccc(OCc4ccccc4)c3)nc2c1 when tested on Protein deacetylase HDAC6 (Homo sapiens).
## Result 7.87
